- SYSTEM UNDER TEST: recombinant arginase from Leishmania amazonensis (ARG-L) (Leishmania amazonensis, UniProt O96394)
- PROTOCOL SUMMARY: ARG-L enzyme kinetics: Ki, Ki' and mechanism of inhibition (Dixon and Cornish-Bowden plots)
- CONDITION CONTEXT: Dixon plot, dissociation constant of enzyme-inhibitor complex, mean ± SEM
Reported Ki values for the following compounds.
Kindly report the value followed by its unit.

[
  {
    "COMPOUND": "O=C(OC1Cc2c(O)cc(O)cc2OC1c1cc(O)c(O)c(O)c1)c1cc(O)c(O)c(O)c1 (single isomer, unassigned; (-)) [EGCG, (−)-Epigallocatechin-3-gallate]",
    "Ki": "4 µM"
  }
]

Now look at this entry.
[ask] Reported Ki for O=C(O)c1cc(O)c(O)c(O)c1 : what is it?
[reply] 7.2 µM
